The entries below come with measured kd mutant/kd wt values attached.
# system_tested: T1, human TGFβ3 (human, UniProt P10600 301-412)
# T1 sequence: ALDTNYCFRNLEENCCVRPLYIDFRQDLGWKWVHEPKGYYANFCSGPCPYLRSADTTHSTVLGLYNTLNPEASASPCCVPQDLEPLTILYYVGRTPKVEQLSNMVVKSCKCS
# test_summary: Biacore off-rate vs wt GC1008
# print the numeric value only

| binder | kd mutant/kd wt |
| --- | --- |
| I52L (antibody, V domains shown, GC1008 IgG4 variant) VH: QVQLVQSGAEVKKPGSSVKVSCKASGYTFSSNVISWVRQAPGQGLEWMGGVLPIVDIANYAQRFKGRVTITADESTSTTYMELSSLRSEDTAVYYCASTLGLVLDAMDYWGQGTLVTVSS VL: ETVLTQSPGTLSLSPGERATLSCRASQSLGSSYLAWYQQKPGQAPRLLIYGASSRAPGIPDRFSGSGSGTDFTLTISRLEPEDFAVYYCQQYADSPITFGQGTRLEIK | 1.6 |

Now for the binder whose kd mutant/kd wt we want.
Entry under review: I54R (antibody, V domains shown, GC1008 IgG4 variant) VH: QVQLVQSGAEVKKPGSSVKVSCKASGYTFSSNVISWVRQAPGQGLEWMGGVIPRVDIANYAQRFKGRVTITADESTSTTYMELSSLRSEDTAVYYCASTLGLVLDAMDYWGQGTLVTVSS VL: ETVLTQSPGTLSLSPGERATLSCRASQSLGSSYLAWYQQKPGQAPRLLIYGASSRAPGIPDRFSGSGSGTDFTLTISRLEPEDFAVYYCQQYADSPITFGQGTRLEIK . Reported kd mutant/kd wt?
4.8
